Target: Zcchc11 enzyme (Homo sapiens)
Construct: made in house; host or cells: HEK293 cells (Zcchc11); E. coli Rosetta II (LIN28A)
Sequence (Q5TAX3 212-1420): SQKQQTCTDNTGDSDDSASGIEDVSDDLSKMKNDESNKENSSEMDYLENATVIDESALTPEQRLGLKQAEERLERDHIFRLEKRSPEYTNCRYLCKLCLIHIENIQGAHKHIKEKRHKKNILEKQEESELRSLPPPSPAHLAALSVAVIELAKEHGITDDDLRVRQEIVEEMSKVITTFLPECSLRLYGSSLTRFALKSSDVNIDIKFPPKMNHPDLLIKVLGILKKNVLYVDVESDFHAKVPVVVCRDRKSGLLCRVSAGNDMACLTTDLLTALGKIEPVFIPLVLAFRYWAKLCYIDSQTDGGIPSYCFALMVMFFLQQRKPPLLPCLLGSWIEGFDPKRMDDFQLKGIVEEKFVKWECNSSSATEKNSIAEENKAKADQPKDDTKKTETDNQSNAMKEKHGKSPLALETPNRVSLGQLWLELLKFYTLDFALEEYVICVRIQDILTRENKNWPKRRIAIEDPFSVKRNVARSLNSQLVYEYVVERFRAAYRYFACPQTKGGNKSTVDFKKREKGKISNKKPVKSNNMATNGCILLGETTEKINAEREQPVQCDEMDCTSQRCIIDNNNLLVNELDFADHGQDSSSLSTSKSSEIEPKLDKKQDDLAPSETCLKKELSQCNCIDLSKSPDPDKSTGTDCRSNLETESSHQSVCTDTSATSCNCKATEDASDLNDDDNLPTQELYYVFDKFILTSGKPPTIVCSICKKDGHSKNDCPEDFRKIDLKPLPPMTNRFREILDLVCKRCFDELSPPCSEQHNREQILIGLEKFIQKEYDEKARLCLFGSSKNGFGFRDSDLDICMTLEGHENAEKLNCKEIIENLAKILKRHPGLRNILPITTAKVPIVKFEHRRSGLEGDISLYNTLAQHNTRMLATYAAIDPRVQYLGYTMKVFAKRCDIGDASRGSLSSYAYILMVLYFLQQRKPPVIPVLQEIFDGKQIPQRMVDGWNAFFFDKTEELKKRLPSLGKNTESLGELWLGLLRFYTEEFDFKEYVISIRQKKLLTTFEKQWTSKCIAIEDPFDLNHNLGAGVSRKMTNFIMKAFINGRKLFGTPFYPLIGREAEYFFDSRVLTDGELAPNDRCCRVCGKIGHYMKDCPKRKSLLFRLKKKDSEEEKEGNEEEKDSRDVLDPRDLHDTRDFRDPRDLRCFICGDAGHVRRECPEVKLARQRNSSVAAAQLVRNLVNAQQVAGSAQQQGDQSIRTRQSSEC
Assay: TUTase assay (Zcchc11 assay, Lin28a-dependent polyuridylation of pre-let-7)
Format: biochemical
Settings: Lin28a-dependent Zcchc11 (Z11) TUTase assay; read-out: Potency Lin28a-dep Z11 IC50
measured.attribute: IC50

Short answer on Zcchc11 enzyme (Homo sapiens) for COc1ccc(Cl)c(OC[C@H]2CC(N3CCCC3=O)CN2c2cc3c(cc2Cl)c(=O)c(C(=O)O)cn3-c2ccc(N3CC(N(C)C)C3)nc2)n1 (stereo partly drawn) , IC50: ≤ 1000 nM

Readout IC50 for CN(C)CCOc1ccc(-n2cc(C(=O)O)c(=O)c3cc(Cl)c(N4CCC[C@@H]4COc4ncccc4Cl)cc32)cn1 , test system Zcchc11 enzyme (Homo sapiens), was ≤ 1000 nM

Summary: O=C(O)c1cn(-c2cc3cn[nH]c3cn2)c2cc(N3CCC[C@@H]3COc3ncccc3Cl)c(Cl)cc2c1=O , Zcchc11 enzyme (Homo sapiens), IC50 = ≤ 1000 nM
